Data origin: patent US20130109682A1

TARGET_OR_SYSTEM: PIM3 (Homo sapiens, UniProt Q86V86)
TEST_DESCRIPTION: KinaseGlo Pim3 ATP depletion assay
Format: biochemical
pIC50: −log10 of the molar value.
MEASURED_PROPERTY: pIC50

CC[C@]1(O)[C@H](O)C[C@H](c2ccncc2NC(=O)c2ccc(F)c(-c3c(F)cccc3F)n2)O[C@@H]1C (stereo in doubt); 6.63
O=C(Nc1cnccc1[C@]1(C(F)(F)F)CCCCO1)c1ccc(F)c(-c2c(F)cccc2F)n1; 6.91
O=C(Nc1cnccc1C1=C[C@@H](O)[C@H](O)[C@@H](CCl)O1)c1ccnc(-c2c(F)cccc2F)n1; 8.52

P. C[C@@H]1OC(c2ccncc2NC(=O)c2nc(-c3c(F)cccc3F)ncc2N)=C[C@H](O)[C@@]1(C)O
Q. O=C(Nc1cnccc1[C@H]1OC[C@H](CO)O1)c1ccc(F)c(-c2c(F)cccc2F)n1
R. C[C@H]1C[C@@H](O)C[C@@H](c2ccncc2NC(=O)c2ccc(F)c(-c3c(F)cccc3F)n2)O1 (stereo in doubt)
Prompt: Arrange by pIC50, high to low. Returns: the labels arranged in the requested order.
Completion: R, P, Q

----------
TARGET_OR_SYSTEM: PIM3 (Homo sapiens)
TEST_DESCRIPTION: KinaseGlo Pim3 ATP depletion assay
Type: biochemical
MEASURED_PROPERTY: IC50 (nM)

O=C(Nc1cnccc1[C@@H]1OCC[C@H](CO)O1)c1csc(-c2c(F)cccc2F)n1; 75
C[C@@H]1C[C@H](O)C[C@H](c2ccncc2NC(=O)c2csc(-c3c(F)cccc3F)n2)O1 (stereo in doubt); 165
C[C@@H]1O[C@H](c2ccncc2NC(=O)c2csc(-c3c(F)cccc3F)n2)C[C@H](O)[C@H]1O (stereo in doubt); 7
C[C@H]1O[C@@H](c2ccncc2NC(=O)c2nc(-c3ccccc3)cnc2N)[C@H](F)[C@@H](O)[C@]1(C)O; 27
CC[C@H]1O[C@@H](c2ccncc2NC(=O)c2nc(-c3c(F)cccc3F)ncc2N)C[C@@H](O)[C@]1(C)O; 2.7

1. Nc1ncc(-c2ccccc2)nc1C(=O)Nc1cnccc1[C@@H]1C[C@H](O)[C@]2(O)CCCC[C@@H]2O1
2. C=C[C@H]1OC(c2ccncc2NC(=O)c2ccnc(-c3c(F)cccc3F)n2)=C[C@@H](O)[C@@H]1O
Prompt: In the pair 1 and 2 , the larger recorded IC50 belongs to which? // caller expects the label of the chosen entry
Completion: 1

1. CC[C@H]1O[C@@H](c2ccncc2NC(=O)c2ccc(F)c(-c3c(F)ccc(C#N)c3F)n2)C[C@@H](O)[C@@H]1O
2. O=C(Nc1cnccc1[C@@H]1C[C@H](O)[C@]2(O)CCC[C@@H]2O1)c1ccnn(-c2ccccc2F)c1=O
Prompt: Select one. Lower IC50: 1 or 2 // caller expects the label of the chosen entry
Completion: 1
(1: 8.3 nM, 2: 23800 nM)

P. CC[C@]1(O)[C@H](O)C[C@H](c2ccncc2NC(=O)c2nc(-c3ccncc3F)ccc2N)O[C@@H]1C
Q. CC(C)NC(=O)c1ccc(F)c(-c2ccc(N)c(C(=O)Nc3cnccc3[C@H]3C[C@@H](O)[C@](C)(O)[C@@H](C)O3)n2)c1
R. C[C@H]1[C@H](O)C[C@H](c2ccncc2NC(=O)c2csc(-c3c(F)cccc3F)n2)O[C@@H]1C (stereo in doubt)
Prompt: # rank by IC50, ascending (min first) Returns: the labels arranged in the requested order.
Completion: Q, P, R

----------
TARGET_OR_SYSTEM: GSK3β (Homo sapiens)
TEST_DESCRIPTION: GSK3β ATP depletion assay
Format: biochemical
CONDITION_DETAILS: ATP depletion assay; read-out: GSK3b IC50
pIC50: −log10 of the molar value.
The following molecules are listed with their measured pIC50 values.

Would you please look over these solved cases?
Cc1cc(F)c(-c2nc(C(=O)Nc3cnccc3[C@@H]3C[C@H](N)[C@@H](O)[C@H](C4CC4)O3)ccc2F)c(F)c1; < 4.60
Nc1cc(F)c(-c2c(F)cccc2F)nc1C(=O)Nc1cnccc1[C@H]1C[C@@H](N)[C@@]2(O)CCC[C@H]2O1; 6.02

Okay, next one:
Prompt: Quick one: pIC50 for "N[C@H]1C[C@@H](c2ccncc2NC(=O)c2ccc(F)c(-c3c(F)cccc3F)n2)O[C@@H](C2CC2)[C@@H]1O" ?
Completion: < 4.60

----------
TARGET_OR_SYSTEM: PIM1 (Homo sapiens, UniProt P11309)
Sequence (P11309 whole entry): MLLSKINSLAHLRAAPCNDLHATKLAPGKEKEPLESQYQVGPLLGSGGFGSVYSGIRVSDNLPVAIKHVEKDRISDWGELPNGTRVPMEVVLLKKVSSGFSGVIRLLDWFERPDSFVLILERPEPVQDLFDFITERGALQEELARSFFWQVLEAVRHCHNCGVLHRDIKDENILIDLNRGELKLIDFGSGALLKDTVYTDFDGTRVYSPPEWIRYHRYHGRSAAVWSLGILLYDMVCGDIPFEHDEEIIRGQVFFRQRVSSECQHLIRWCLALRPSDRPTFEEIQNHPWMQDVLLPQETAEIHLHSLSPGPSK
TEST_DESCRIPTION: Pim 1 AlphaScreen assay (high ATP)
Type: biochemical
CONDITION_DETAILS: read-out: Pim1 IC50
pIC50: −log10 of the molar value.
MEASURED_PROPERTY: pIC50

Would you please look over these solved cases?
CC[C@H]1O[C@@H](c2ccncc2NC(=O)c2ccc(F)c(-c3c(F)cccc3F)n2)C[C@@H](N)[C@@H]1O; 9.70
N[C@H]1C[C@@H](c2ccncc2NC(=O)c2ccc(F)c(-c3c(F)cccc3F)n2)O[C@@H](C2CC2)[C@@H]1O; 8.44
C[C@H]1O[C@@H](c2ccncc2NC(=O)c2ccc(F)c(-c3c(F)cccc3F)n2)C[C@@H](N)[C@]1(C)O; 10.05
CC(C)[C@H]1O[C@@H](c2ccncc2NC(=O)c2ccc(F)c(-c3c(F)ccc(C#N)c3F)n2)C[C@@H](N)[C@@H]1O; 9.15
CC[C@]1(O)[C@H](N)C[C@H](c2ccncc2NC(=O)c2ccc(F)c(-c3c(F)cc(OC)cc3F)n2)O[C@@H]1C; 10.40
CC(C)(C)[C@H]1O[C@@H](c2ccncc2NC(=O)c2ccnc(-c3c(F)cccc3F)n2)C[C@@H](N)[C@@H]1O; 8.98

A. COc1cc(F)c(-c2nc(C(=O)Nc3cnccc3[C@H]3C[C@@H](N)[C@](C)(O)[C@@H](C4CC4)O3)ccc2F)c(F)c1
B. COCCOc1cc(F)c(-c2nc(C(=O)Nc3cnccc3[C@@H]3C[C@@H](N)CC(C)(C)O3)ccc2F)c(F)c1
Prompt: Select one. Lower pIC50: A or B // caller expects the label of the chosen entry
Completion: A

----------
TARGET_OR_SYSTEM: PIM2 (Homo sapiens, UniProt Q9P1W9)
Sequence (Q9P1W9 whole entry): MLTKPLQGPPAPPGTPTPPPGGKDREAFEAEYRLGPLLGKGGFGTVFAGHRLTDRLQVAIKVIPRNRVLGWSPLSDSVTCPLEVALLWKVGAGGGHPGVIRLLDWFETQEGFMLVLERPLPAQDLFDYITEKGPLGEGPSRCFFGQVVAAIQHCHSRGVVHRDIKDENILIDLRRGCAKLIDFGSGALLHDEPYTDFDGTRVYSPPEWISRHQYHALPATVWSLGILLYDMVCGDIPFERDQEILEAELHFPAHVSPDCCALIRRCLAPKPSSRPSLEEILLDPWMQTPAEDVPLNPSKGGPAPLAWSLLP
TEST_DESCRIPTION: KinaseGlo Pim2 ATP depletion assay
Assay type: biochemical
pIC50: −log10 of the molar value.
MEASURED_PROPERTY: pIC50

Would you please look over these solved cases?
C=C[C@H]1OC(c2ccncc2NC(=O)c2nc(-c3ccccc3F)c(F)cc2N)=C[C@@H](O)[C@@H]1O; 8.15
O=C(Nc1cnccc1C1OCCCO1)c1csc(-c2c(F)cccc2F)n1; 5.61
C[C@H]1O[C@@H](c2ccncc2NC(=O)c2ccc(F)c(-c3c(F)cccc3F)n2)C[C@@H](N)[C@@H]1O; 7.64
O=C(Nc1cnccc1[C@@H]1CCCCO1)c1ccc(F)c(-c2c(F)cccc2F)n1; 6.67
C[C@H]1C[C@@H](O)C[C@@H](c2ccncc2NC(=O)c2ccc(F)c(-c3c(F)cccc3F)n2)O1 (stereo in doubt); 7.55
C[C@@H]1O[C@H](c2ccncc2NC(=O)c2ccc(F)c(-c3c(F)cccc3F)n2)[C@@H](O)[C@H](O)[C@@]1(C)O (stereo in doubt); 7.44

1. N#C[C@H]1O[C@@H](c2ccncc2NC(=O)c2nc(-c3c(F)cccc3F)ncc2N)C[C@@H](O)[C@@H]1O
2. CC[C@H]1O[C@@H](c2ncncc2NC(=O)c2ccc(F)c(-c3c(F)cccc3F)n2)C[C@@H](O)[C@@H]1O
Prompt: In the pair 1 and 2 , the larger recorded pIC50 belongs to which? // caller expects the label of the chosen entry
Completion: 1

----------
TARGET_OR_SYSTEM: UniProt:Q9P1W9
TEST_DESCRIPTION: Pim 2 AlphaScreen assay (high ATP)
Assay type: biochemical
CONDITION_DETAILS: read-out: Pim2 IC50
MEASURED_PROPERTY: IC50 (nM)

C[C@H]1O[C@@H](c2ccncc2NC(=O)c2nc(-c3ccccc3)cnc2N)C[C@@H](N)[C@]1(C)O; 120

A. CC(C)[C@@H]1C[C@H](N)CC(c2ccncc2NC(=O)c2ccnc(-c3c(F)cccc3F)n2)O1 (stereo in doubt)
B. CC(C)(C)[C@H]1O[C@@H](c2ccncc2NC(=O)c2nc(-c3ccccc3)cnc2N)C[C@H](N)[C@@H]1O
C. COc1cc(F)c(-c2nc(C(=O)Nc3cnccc3[C@H]3C[C@@H](N)[C@H](O)[C@@H](C4CC4)O3)ccc2F)c(F)c1
Prompt: # rank by IC50, ascending (min first) Returns: the labels arranged in the requested order.
Completion: C, B, A
(C: 13.4 nM, B: 64.9 nM, A: 165 nM)

----------
TARGET_OR_SYSTEM: GSK3β (Homo sapiens, UniProt P49841)
Sequence (P49841 whole entry, species assumed): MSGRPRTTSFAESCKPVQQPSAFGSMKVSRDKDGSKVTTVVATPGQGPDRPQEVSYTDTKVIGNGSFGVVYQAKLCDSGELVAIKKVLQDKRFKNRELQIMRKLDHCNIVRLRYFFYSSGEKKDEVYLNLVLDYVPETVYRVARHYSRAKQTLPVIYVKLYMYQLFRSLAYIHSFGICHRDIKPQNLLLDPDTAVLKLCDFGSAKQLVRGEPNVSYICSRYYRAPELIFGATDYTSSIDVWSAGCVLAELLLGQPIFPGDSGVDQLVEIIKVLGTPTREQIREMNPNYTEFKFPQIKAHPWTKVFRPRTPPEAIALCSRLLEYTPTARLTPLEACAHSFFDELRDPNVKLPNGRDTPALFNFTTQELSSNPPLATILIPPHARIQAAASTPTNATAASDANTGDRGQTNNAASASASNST
TEST_DESCRIPTION: GSK3β ATP depletion assay
Assay type: biochemical
CONDITION_DETAILS: read-out: GSK3b IC50
MEASURED_PROPERTY: IC50 (nM)

Would you please look over these solved cases?
O=C(Nc1cnccc1[C@@H]1C[C@H](O)CCO1)c1ccc(F)c(-c2c(F)cccc2F)n1 [Example 132]; 196
C[C@H]1O[C@@H](c2ccncc2NC(=O)c2ccc(F)c(-c3c(F)cccc3F)n2)C[C@H](O)[C@@H]1O [Example 108]; 344
O=C1CC[C@H]2O[C@@H](c3ccncc3NC(=O)c3ccc(F)c(-c4c(F)cccc4F)n3)C[C@@H](O)[C@H]2N1 [Example 198]; 24

P. O=C(Nc1cnccc1[C@]1(C(F)(F)F)C[C@H](O)C=CO1)c1ccc(F)c(-c2c(F)cccc2F)n1 [Example 49]
Q. C[C@H]1O[C@@H](c2ccncc2NC(=O)c2ccc(F)c(-c3c(F)cccc3F)n2)[C@H](F)[C@@H](O)[C@]1(C)O (stereo in doubt) [Example 69]
R. N#Cc1ccc(F)c(-c2nc(C(=O)Nc3cnccc3[C@H]3C[C@@H](O)[C@H](O)[C@@H](CCl)O3)ccc2F)c1F [Example 1]
Prompt: Arrange by IC50, high to low. Returns: the labels arranged in the requested order.
Completion: Q, P, R
(Q: 1800 nM, P: 210 nM, R: 33 nM)
